Target: Human β1 (Homo sapiens)
Sequence (P08588 whole entry): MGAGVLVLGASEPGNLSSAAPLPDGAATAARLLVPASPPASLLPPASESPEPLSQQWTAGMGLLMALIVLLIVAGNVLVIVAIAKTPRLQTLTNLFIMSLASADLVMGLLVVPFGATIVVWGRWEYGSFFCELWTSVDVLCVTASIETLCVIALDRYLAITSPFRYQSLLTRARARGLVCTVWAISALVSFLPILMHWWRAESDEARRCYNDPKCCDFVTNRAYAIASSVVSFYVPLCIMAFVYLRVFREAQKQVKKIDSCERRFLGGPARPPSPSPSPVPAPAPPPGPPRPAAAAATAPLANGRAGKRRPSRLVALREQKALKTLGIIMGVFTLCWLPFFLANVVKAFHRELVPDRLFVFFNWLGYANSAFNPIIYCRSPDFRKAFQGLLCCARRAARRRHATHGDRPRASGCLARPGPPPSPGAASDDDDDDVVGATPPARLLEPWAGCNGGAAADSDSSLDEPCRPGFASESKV
Assay: Cell bioassay, cAMP accumulation, human β1 in HEK
Settings: read-out: cell bioassay (EC50 cAMP accum.) β1
assay_metric: EC50

Task item: Look up EC50: `CN(C)C(=O)COc1ccc2c(c1)C[C@@H](NC[C@H](O)c1ccc(O)c(CCO)c1)CC2`
Reply: > 50 µM

###

Molecular target: β2 (GP carbachol-tx trachea) (Cavia porcellus, UniProt Q8K4Z4)
Construct: tissue Cerep
Sequence (Q8K4Z4 whole entry): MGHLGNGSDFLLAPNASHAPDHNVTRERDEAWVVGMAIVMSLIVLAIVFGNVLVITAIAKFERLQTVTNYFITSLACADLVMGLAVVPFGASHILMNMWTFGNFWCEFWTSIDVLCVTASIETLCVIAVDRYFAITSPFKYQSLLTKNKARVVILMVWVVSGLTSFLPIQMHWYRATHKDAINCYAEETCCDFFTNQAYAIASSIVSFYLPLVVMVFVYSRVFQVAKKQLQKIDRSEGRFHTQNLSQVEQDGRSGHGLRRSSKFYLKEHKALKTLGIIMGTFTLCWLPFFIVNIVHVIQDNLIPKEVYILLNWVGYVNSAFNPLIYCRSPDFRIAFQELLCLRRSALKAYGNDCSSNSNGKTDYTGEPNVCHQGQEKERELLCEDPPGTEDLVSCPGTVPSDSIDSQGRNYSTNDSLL
Test: Ex vivo organ bioassay (Cerep 13271), GP carbachol-treated trachea
Details: GP carbachol-tx trachea (% salbut)
assay_metric: EC50 (nM)
Write down the numeric answer in nM and omit the unit.

Task item: Look up EC50: `CN(C)C(=O)COc1ccc2c(c1)C[C@@H](NC[C@H](O)c1ccc(O)c(CCO)c1)CC2`
Reply: 28
